src = patent US20210214375A1

Target: MAGL (Mus musculus, UniProt O35678)
Construct: from tissue; host or cells: brain of wild-type C57Bl/6J mice
Sequence (O35678 1-303): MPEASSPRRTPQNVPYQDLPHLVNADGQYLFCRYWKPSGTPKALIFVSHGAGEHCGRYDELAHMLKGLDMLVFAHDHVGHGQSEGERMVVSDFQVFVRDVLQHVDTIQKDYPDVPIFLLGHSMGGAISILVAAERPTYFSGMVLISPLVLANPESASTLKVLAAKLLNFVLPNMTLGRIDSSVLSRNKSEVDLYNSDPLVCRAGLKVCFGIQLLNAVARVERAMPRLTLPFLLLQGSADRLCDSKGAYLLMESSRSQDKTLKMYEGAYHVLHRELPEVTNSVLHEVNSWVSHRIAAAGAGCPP
Assay: Mouse brain proteomes from inhibitor treated mice (oral gavage, brain proteomes analyzed 4 h after administration)
Assay type: in vivo, mouse (C57Bl/6J)
Settings: brain proteome 4 h after administration, read-out: % Inh 5 mg/kg MGLL (Mouse)
Reported inhibition at 5 mg/kg is given for each of the following compounds.

Example cases with answers are listed next.
compound	inhibition at 5 mg/kg
O=C(OC(C(F)(F)F)C(F)(F)F)N1CCC2(CCN(Cc3ccc(C(F)(F)F)cc3N3CCCCC3)CC2)C1 [Example 187]	≥ 75%
CN(Cc1ccc(F)cc1C1(C(=O)O)CCCC1)C1(C)CCN(C(=O)OC(C(F)(F)F)C(F)(F)F)CC1 [Example 143]	≥ 75%
CCN1CCN(c2cccc(Cl)c2CN2CC3(CCN(C(=O)OC(C(F)(F)F)C(F)(F)F)CC3)C2)CC1 [Example 50]	≤ 25%

Field: next compound
MAGL (Mus musculus, UniProt O35678) / inhibition at 5 mg/kg / O=C(O)C1CCN(c2c(Cl)cccc2CN2CCC3(CC2)CCN(C(=O)OC(C(F)(F)F)C(F)(F)F)C3)CC1 [Example 218] : value?
≥ 75%
